B1: TRIM9 (parent)
chain: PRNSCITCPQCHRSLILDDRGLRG

Variants of: B1
Assay: protein stability index of a GFP-peptide fusion (GPS, HEK-293T) (PSI 1-6); higher = more stable;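 also: lentivirally expressed fusions sorted by FACS into six bins by GFP to DsRed ratio, PSI derived from sequencing read proportions per bin multiplied by bin number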
Details: c terminus: a fixed tail appended
The entries below come with measured protein stability index values attached.

>>> assay_value("H12C")
1.6
>>> assay_value("G21Q")
2.01

I'd like to know its protein stability index. The variant in question is R2E
2.71

Note, next up: L22M
2.69

What would you report for S14W ?
1.68

Data credit: the supplement of paper PMC10567573
